Experiment: Biodistribution in ddY mice
Assay type: in vivo
Conditions: i.v. co-injection, 1 h
From the text: In this study, to minimize both the number of mice consumed in the experiment and the potential for experimental errors, we co-injected radiobrominated and radioiodinated compounds into mice[30],[31]. High radioactivity in the liver, small intestine, and large intestine was observed. […] Tissues in mice were resected and weighed. The radioactivity of the tissues was counted by a gamma counter and counts were corrected for background radiation. […]
Marks after values point to notes of the source that are not given here.
The reader will find reported Radioactivity in Liver values listed item by item below.

>  <Compound>
COCCOc1ccc2c(c1)ncn2-c1ccc2cccc(N3CCC(NC(=O)c4cccc([77Br])c4)CC3)c2n1 [[^77Br]3]

>  <Radioactivity in Liver>
7.59 (0.76) %injected dose/gram tissue

$$$$
>  <Compound>
COCCOc1ccc2c(c1)ncn2-c1ccc2c([125I])ccc(N3CCC(N)CC3)c2n1 [[^125I]4, reference compound]

>  <Radioactivity in Liver>
3.72 (1.18) %injected dose/gram tissue

$$$$
>  <Compound>
COCCOc1ccc2c(c1)ncn2-c1ccc2c([77Br])ccc(N3CCC(N)CC3)c2n1 [[^77Br]2]

>  <Radioactivity in Liver>
4.26 (1.37) %injected dose/gram tissue

$$$$

----------
experiment: Biodistribution in ddY mice; type: in vivo; conditions: i.v. co-injection, 4 h
Marks after values point to notes of the source that are not given here.
The reader will find reported Radioactivity in Pancreas values listed item by item below.
Measurement Label: Radioactivity in Pancreas

>  <Compound>
COCCOc1ccc2c(c1)ncn2-c1ccc2c([125I])ccc(N3CCC(N)CC3)c2n1 [[^125I]4, reference compound]

>  <Measurement Label>
Radioactivity in Pancreas

>  <Value Reported>
1.27 (0.11)^* %injected dose/gram tissue

$$$$
>  <Compound>
COCCOc1ccc2c(c1)ncn2-c1ccc2cccc(N3CCC(NC(=O)c4cccc([77Br])c4)CC3)c2n1 [[^77Br]3]

>  <Measurement Label>
Radioactivity in Pancreas

>  <Value Reported>
0.68 (0.10) %injected dose/gram tissue

$$$$
>  <Compound>
COCCOc1ccc2c(c1)ncn2-c1ccc2c([77Br])ccc(N3CCC(N)CC3)c2n1 [[^77Br]2]

>  <Measurement Label>
Radioactivity in Pancreas

>  <Value Reported>
1.63 (0.19) %injected dose/gram tissue

$$$$

----------
The reader will find reported pIC50 values listed item by item below.
molecular target: PDGFRβ (BxPC3-luc cells) (Homo sapiens, UniProt P09619)
Sequence (P09619 33-1106): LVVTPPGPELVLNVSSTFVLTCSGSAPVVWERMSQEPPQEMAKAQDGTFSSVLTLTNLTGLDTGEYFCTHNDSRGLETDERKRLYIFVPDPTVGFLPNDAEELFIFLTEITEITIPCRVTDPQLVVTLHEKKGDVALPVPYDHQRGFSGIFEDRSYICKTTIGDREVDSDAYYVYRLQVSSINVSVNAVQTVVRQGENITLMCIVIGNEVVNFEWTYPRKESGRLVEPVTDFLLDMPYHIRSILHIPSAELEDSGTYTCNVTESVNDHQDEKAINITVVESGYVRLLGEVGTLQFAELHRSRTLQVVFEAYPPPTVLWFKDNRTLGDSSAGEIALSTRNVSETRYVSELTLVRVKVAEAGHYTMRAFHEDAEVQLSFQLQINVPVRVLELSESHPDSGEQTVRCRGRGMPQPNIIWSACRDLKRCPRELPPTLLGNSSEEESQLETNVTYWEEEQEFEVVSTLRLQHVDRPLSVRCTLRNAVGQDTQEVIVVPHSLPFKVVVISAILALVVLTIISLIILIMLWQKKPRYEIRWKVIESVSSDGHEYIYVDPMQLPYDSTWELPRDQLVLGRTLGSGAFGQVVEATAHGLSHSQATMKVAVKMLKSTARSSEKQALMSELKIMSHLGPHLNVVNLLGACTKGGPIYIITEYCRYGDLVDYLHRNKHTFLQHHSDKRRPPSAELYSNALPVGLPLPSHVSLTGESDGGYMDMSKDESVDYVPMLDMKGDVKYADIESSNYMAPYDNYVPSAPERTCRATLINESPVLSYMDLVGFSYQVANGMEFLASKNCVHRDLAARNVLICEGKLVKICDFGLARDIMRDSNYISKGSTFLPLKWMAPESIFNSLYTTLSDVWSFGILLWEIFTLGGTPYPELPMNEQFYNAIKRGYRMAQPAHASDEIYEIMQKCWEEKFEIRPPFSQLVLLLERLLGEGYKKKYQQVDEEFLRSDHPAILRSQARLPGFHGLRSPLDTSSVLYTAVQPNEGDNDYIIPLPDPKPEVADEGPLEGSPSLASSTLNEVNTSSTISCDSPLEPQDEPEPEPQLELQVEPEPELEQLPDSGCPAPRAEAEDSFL
pIC50: −log10 of the molar value.
Measurement Label: pIC50

>  <Compound>
COCCOc1ccc2c(c1)ncn2-c1ccc2c(Br)ccc(N3CCC(N)CC3)c2n1

>  <Target Entity>
PDGFRβ (BxPC3-luc cells) (Homo sapiens, UniProt P09619)

>  <Value Reported>
7.25

$$$$
>  <Compound>
COCCOc1ccc2c(c1)ncn2-c1ccc2cccc(N3CCC(N)CC3)c2n1 [Compound 1, reference compound]

>  <Target Entity>
PDGFRβ (BxPC3-luc cells) (Homo sapiens, UniProt P09619)

>  <Value Reported>
6.74

$$$$
>  <Compound>
COCCOc1ccc2c(c1)ncn2-c1ccc2cccc(N3CCC(NC(=O)c4cccc(Br)c4)CC3)c2n1

>  <Target Entity>
PDGFRβ (BxPC3-luc cells) (Homo sapiens, UniProt P09619)

>  <Value Reported>
5.89

$$$$
